Assay: Stability of the compound in 0.1 M SDS-0.01 M 7.5% (v/v) 1-propanol-NaH2PO4/H3PO4 assessed as compound recovery at 3.5 x 10^-7 mol/ml by micellar liquid chromatography
Type: physicochemical
propertyName: Drug recovery (%)

{"smilesRepr": "CCC(=O)n1ncc2c(O)ncnc21", "propertyName": "Drug recovery", "assayResult": 103.18}
{"smilesRepr": "Cc1nc(O)c2c[nH]nc2n1", "propertyName": "Drug recovery", "assayResult": 102.77}
{"smilesRepr": "Oc1ncnc2[nH]ncc12", "propertyName": "Drug recovery", "assayResult": 97.54}
{"smilesRepr": "CC(=O)n1ncc2c(O)ncnc21", "propertyName": "Drug recovery", "assayResult": 99.04}
{"smilesRepr": "CCCc1nc2n[nH]cc2c(=O)[nH]1", "propertyName": "Drug recovery", "assayResult": 100.27}
{"smilesRepr": "CCCC(=O)n1ncc2c(O)ncnc21", "propertyName": "Drug recovery", "assayResult": 100.3}
{"smilesRepr": "CCc1nc(O)c2c[nH]nc2n1", "propertyName": "Drug recovery", "assayResult": 97.78}

Source listed as ChEMBL document CHEMBL2434933.
